From: patent US9156822B2

- protocol.description: in vivo
- condition.parameters: mouse, plasma
property.name: concentration at 2 h (ng/mL)
Answers are plain numbers, in ng/mL.

Sample O=C1CCc2ccc(OCCCCN3CCCN(c4cccc(Cl)c4Cl)CC3)nc2N1 ; concentration at 2 h observed: 6.3

====

- tested.target: D2 receptors (Homo sapiens (Human), UniProt P14416)
- protocol.description: D2 β-arrestin recruitment (Tango) assay
- Format: cell-based
- Sequence (P14416 whole entry, looked up): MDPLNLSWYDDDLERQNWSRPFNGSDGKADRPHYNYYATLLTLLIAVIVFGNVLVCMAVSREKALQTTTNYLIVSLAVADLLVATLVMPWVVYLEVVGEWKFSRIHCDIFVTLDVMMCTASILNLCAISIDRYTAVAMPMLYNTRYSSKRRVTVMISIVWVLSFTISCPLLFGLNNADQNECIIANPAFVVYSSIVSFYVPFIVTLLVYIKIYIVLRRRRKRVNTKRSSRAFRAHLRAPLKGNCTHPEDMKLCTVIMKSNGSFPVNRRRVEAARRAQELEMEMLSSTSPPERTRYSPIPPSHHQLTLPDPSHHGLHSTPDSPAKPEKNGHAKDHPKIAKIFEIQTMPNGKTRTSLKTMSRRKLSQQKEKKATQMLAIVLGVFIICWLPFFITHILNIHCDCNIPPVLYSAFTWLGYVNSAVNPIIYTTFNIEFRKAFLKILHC
Hi there, I'd appreciate the recorded pEC50 for every entry that follows.
Numbers only, as −log10 of the molar value.

O=c1[nH]c2ccc(OCCCN3CCN(c4cccc(Cl)c4Cl)CC3)cc2[nH]1 [Compound 34] | 7.28

Would you be so kind as to report pEC50 for each listed record?
1. COc1ccccc1N1CCN(CCCCOc2ccc3c(n2)NC(=O)CC3)CC1 [Compound 37]
2. Clc1cccc(C2CCN(CCCOc3ccc4scnc4c3)CC2)c1Cl [Compound 22]
3. O=C1NCCc2ccc(OCCCCN3CCC(c4cccc(Cl)c4Cl)CC3)cc21 [Compound 33]

-- reply
[9.00, 7.29, 7.62]

Take each entry in turn and give its pEC50.
1. Clc1cccc(N2CCN(CCCCOc3ccc4scnc4c3)CC2)c1Cl [Compound 36]
2. O=C1CCc2ccc(Oc3cccc(CN4CCN(c5cccc(Cl)c5Cl)CC4)c3)cc2N1 [Compound 30]

-- reply
1. 7.23
2. 6.53

====

- tested.target: D1 dopamine receptor (Homo sapiens (Human), UniProt P21728)
- Sequence (P21728 whole entry): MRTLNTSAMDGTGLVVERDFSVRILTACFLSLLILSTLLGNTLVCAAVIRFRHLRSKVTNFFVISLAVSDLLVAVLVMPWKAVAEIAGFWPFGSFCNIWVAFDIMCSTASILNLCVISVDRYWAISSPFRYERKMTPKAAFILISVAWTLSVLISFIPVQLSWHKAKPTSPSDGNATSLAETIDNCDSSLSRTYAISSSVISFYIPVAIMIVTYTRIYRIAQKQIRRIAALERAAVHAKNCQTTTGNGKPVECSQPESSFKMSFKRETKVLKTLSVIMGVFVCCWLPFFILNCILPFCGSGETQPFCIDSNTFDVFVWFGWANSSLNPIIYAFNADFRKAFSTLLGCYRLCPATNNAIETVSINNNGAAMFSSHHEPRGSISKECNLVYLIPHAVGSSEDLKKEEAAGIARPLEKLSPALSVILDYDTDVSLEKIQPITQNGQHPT
- condition.parameters: read-out: D1/binding (Ki)
property.name: pKi
Answers are plain numbers, as −log10 of the molar value.

Measured pKi of O=C1CCc2ccc(OCCCCN3CCCN(c4cccc(Cl)c4Cl)CC3)nc2N1 : 5.98

====

- tested.target: UniProt P14416
- protocol.description: D2 mediated cAMP GloSensor assay
- Type: cell-based
property.name: cAMP (GloSensor) activity in words (merged EC50/Emax cell)

In the examples that follow, each entry is paired with its recorded cAMP (GloSensor) activity in words (merged EC50/Emax cell).
CCOc1ccccc1N1CCCN(CCCCOc2ccc3c(n2)NC(=O)CC3)CC1 [Compound 13] | neutral
Clc1cccc(C2CCN(CCCOc3ccc4scnc4c3)CC2)c1Cl [Compound 22] | neutral
O=C1NCCc2ccc(OCCCCN3CCC(c4cccc(Cl)c4Cl)CC3)cc21 [Compound 33] | neutral
O=C1CCc2ccc(Oc3cccc(CN4CCN(c5cccc(Cl)c5Cl)CC4)c3)cc2N1 [Compound 30] | neutral
O=c1[nH]c2ccc(OCCCN3CCCN(c4cccc(Cl)c4Cl)CC3)cc2[nH]1 [Compound 19] | neutral
O=C1CCc2ccc(OCCCCN3CCN(c4cccc5c4OCCO5)CC3)cc2N1 [Compound 40] | neutral

Next:
Lab note: measured cAMP (GloSensor) activity in words (merged EC50/Emax cell) of CCOc1ccccc1N1CCCN(CCCCOc2ccc3c(c2)NC(=O)CC3)CC1 [Compound 12] was neutral

====

- tested.target: D4 dopamine receptor (Homo sapiens (Human), UniProt P21917)
- Sequence (P21917 whole entry): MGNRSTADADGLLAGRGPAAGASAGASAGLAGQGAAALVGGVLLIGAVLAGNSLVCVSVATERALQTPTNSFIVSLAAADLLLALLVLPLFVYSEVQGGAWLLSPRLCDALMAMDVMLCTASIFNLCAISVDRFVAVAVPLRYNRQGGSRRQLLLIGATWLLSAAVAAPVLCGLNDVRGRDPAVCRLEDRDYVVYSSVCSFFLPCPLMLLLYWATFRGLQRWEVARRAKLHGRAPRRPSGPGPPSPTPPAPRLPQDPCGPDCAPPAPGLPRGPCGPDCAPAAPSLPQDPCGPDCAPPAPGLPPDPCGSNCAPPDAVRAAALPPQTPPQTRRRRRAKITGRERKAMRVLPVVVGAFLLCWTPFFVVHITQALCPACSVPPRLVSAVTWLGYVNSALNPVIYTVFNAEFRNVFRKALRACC
property.name: Ki

So, O=C1CCc2ccc(OCCCCN3CCCN(c4cccc(Cl)c4Cl)CC3)nc2N1 ? Its Ki was 178 nM

====

- tested.target: hD2 receptors (Homo sapiens (Human), UniProt P14416)
- Sequence (P14416 whole entry): as the sequence (P14416 whole entry, looked up) above
- protocol.description: D2 mediated cAMP GloSensor assay
- Type: cell-based
property.name: pEC50
Give bare numbers, as −log10 of the molar value.

O=C1CCc2ccc(OCCCCN3CCCN(c4cccc(Cl)c4Cl)CC3)nc2N1 | 7.89

// below: pEC50 requested for another compound
The value of pEC50 measured for the compound Clc1cccc(C2CCN(CCCCOc3ccc4scnc4c3)CC2)c1Cl turned out to be 7.68

====

- protocol.description: in vivo
- condition.parameters: mouse, plasma
property.name: concentration at 4 h (ng/mL)
Answers are plain numbers, in ng/mL.

Summary for this molecule, O=C1CCc2ccc(OCCCCN3CCCN(c4cccc(Cl)c4Cl)CC3)nc2N1 : concentration at 4 h is 1.4

====

- tested.target: 5HT2B (Homo sapiens (Human))
- Sequence (P41595 whole entry, species assumed): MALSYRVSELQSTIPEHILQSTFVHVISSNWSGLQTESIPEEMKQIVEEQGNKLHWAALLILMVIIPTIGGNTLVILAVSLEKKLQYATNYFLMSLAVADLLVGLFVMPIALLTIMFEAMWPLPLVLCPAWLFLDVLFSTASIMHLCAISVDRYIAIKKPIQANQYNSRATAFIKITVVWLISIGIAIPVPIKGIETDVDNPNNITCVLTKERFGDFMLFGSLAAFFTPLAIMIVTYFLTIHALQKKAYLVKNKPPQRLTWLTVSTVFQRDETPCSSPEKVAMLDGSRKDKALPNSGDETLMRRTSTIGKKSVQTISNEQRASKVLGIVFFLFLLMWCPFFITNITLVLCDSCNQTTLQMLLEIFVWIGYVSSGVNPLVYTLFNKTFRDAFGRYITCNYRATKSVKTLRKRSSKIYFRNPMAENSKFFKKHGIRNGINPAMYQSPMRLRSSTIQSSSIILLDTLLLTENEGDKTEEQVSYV
- protocol.description: biochemical
Can you tell me Ki for the items I'm about to list?

O=C1CCc2ccc(OCCCCN3CCCN(c4cccc(Cl)c4Cl)CC3)nc2N1 [Compound 3] | 0.6 to 250 nM

Could you now look at the following compound, please?
GET /value?item= O=C1CCc2ccc(OCCCCN3CCCN(c4cccc(Cl)c4Cl)CC3)cc2N1 [Compound 2] &field=Ki returns 0.6 to 250 nM

====

- tested.target: D2 receptors (Homo sapiens (Human))
- protocol.description: CHO-D2 radioligand binding assay ([3H]N-methylspiperone competition)
- condition.parameters: CHO-D2 membranes, [3H]N-methylspiperone; read-out: D2 Binding Ki ± SEM
- Sequence (P14416 whole entry): as the sequence (P14416 whole entry, looked up) above
property.name: Ki
Quote the value and follow it with the unit of measurement.

Some compounds with known Ki results, for comparison:
O=C1CCc2ccc(Oc3ccc(CN4CCN(c5cccc(Cl)c5Cl)CC4)cc3)cc2N1 | 108 nM
O=C1CCc2ccc(OCCCCN3CCN(c4cccc5c4OCCO5)CC3)cc2N1 | 0.3 nM
O=C1CCc2ccc(Oc3cccc(CN4CCN(c5cccc(Cl)c5Cl)CC4)c3)cc2N1 | 113 nM

Per the records, this compound ( COc1ccccc1N1CCN(CCCCOc2ccc3c(n2)NC(=O)CC3)CC1 ) has Ki equal to 1.7 nM

====

- tested.target: hD2 receptors (Homo sapiens (Human))
- protocol.description: D2 mediated cAMP GloSensor assay
- Assay type: cell-based
- condition.parameters: normalized to quinpirole; negative = inverse agonist; read-out: cAMP (GloSensor) Emax
property.name: Emax
Write the figure, then the unit, nothing else.

Recorded Emax, per entry:
COc1ccccc1N1CCCN(CCCCOc2ccc3c(n2)NC(=O)CC3)CC1 [Compound 11] | -118%
Clc1cccc(N2CCN(CCCOc3ccc4cn[nH]c4c3)CC2)c1Cl [Compound 20] | -22%
O=C1NCCc2ccc(OCCCN3CCCN(c4cccc(Cl)c4Cl)CC3)cc21 [Compound 5] | -16%

Could I get Emax for every one of these entries?
1. COc1ccccc1N1CCCN(CCCCOc2ccc3c(c2)NC(=O)CC3)CC1 [Compound 9]
2. O=C1CCc2ccc(OCCCCN3CCN(c4cccc5c4OCCO5)CC3)nc2N1 [Compound 41]
3. O=c1[nH]c2ccc(OCCCN3CCN(c4cccc(Cl)c4Cl)CC3)cc2[nH]1 [Compound 34]
4. O=C1CCc2ccc(OCC3CCC(CN4CCN(c5cccc(Cl)c5Cl)CC4)CC3)cc2N1 (stereo not drawn) [Compound 26]
5. O=C1NCCc2ccc(OCCCCN3CCN(c4cccc(Cl)c4Cl)CC3)cc21 [Compound 25]
6. CC(C)Oc1ccccc1N1CCCN(CCCCOc2ccc3c(n2)NC(=O)CC3)CC1 [Compound 17]

-- reply
1. -63%
2. -19%
3. 25%
4. -25%
5. -74%
6. 18%

====

Provide the reported melting point of each item.

Below, 6 compounds whose answers are already recorded.
O=C1NCCc2ccc(OCCCCN3CCC(c4cccc(Cl)c4Cl)CC3)cc21 | 113 to 114 °C
Clc1cccc(N2CCN(CCCOc3ccc4scnc4c3)CC2)c1Cl | 127 to 129 °C
Clc1cccc(N2CCN(CCCOc3ccc4cn[nH]c4c3)CC2)c1Cl | 159 to 161 °C
Clc1cccc(N2CCCN(CCCOc3ccc4scnc4c3)CC2)c1Cl | 93 to 94 °C
Clc1cccc(C2CCN(CCCCOc3ccc4scnc4c3)CC2)c1Cl | 79 to 81 °C
O=c1[nH]c2ccc(OCCCN3CCCN(c4cccc(Cl)c4Cl)CC3)cc2[nH]1 | 148 to 150 °C

Can you give me melting point for all of these, one by one?
1. O=C1NCCc2ccc(OCCCN3CCCN(c4cccc(Cl)c4Cl)CC3)cc21
2. Clc1cccc(N2CCCN(CCCCOc3ccc4scnc4c3)CC2)c1Cl
3. O=c1ccc2ccc(OCCCN3CCCN(c4cccc(Cl)c4Cl)CC3)cc2[nH]1
4. O=C1CCc2ccc(OCCCN3CCCN(c4cccc(Cl)c4Cl)CC3)cc2N1

-- reply
1. 116 to 117 °C
2. 82 to 84 °C
3. 117 to 118 °C
4. 130 to 131 °C

Provide melting point values for the following items, in order.
1. O=c1[nH]c2ccc(OCCCCN3CCC(c4cccc(Cl)c4Cl)CC3)cc2[nH]1
2. Clc1cccc(N2CCN(CCCCOc3ccc4scnc4c3)CC2)c1Cl

-- reply
1. 180 to 182 °C
2. 93 to 94.5 °C

// for each compound below, give its melting point
1. O=C1CCc2ccc(Oc3cccc(CN4CCN(c5cccc(Cl)c5Cl)CC4)c3)cc2N1
2. O=C1NCCc2ccc(OCCCCN3CCCN(c4cccc(Cl)c4Cl)CC3)cc21

-- reply
182 to 183 °C
86 to 88 °C

====

- tested.target: D2 receptors (Homo sapiens (Human), UniProt P14416)
- protocol.description: CHO-D2 radioligand binding assay ([3H]N-methylspiperone competition)
- condition.parameters: Table 7; read-out: D2/binding (Ki)
pKi: −log10 of the molar value.
property.name: pKi

Entry O=C1CCc2ccc(OCCCCN3CCCN(c4cccc(Cl)c4Cl)CC3)nc2N1 [Compound 3] , pKi reported as > 8.00
